experimental readout: melting point

Use these answered entries as a reference point.
| molecule | melting point |
| --- | --- |
| Cc1nc(-n2[nH]c(C)c(Cc3ccc(Cl)cc3)c2=O)sc1C(=O)NCc1cccnc1 | 215 to 217 °C |
| CC(C)(C)c1nc2cc(CC#N)ccc2s1 | 50 to 52 °C |

# return melting point for each item in the list
1. COc1ccc(C(=O)CC(SC(C)=O)C(=O)O)cc1OC (stereo not given)
2. COc1cccc(Cn2nc3oc(=O)cc(C)c3c2C)c1
3. COC(=O)CCC/C=C(/c1ccc(OC)c(C(=O)OC)c1)c1cc(C)c2oc(=O)n(C)c2c1
4. CC(C)c1ccc(C(=O)NC(C)c2ccc(Br)s2)cc1 (stereo not given)
5. COC(=O)c1ccccc1S(=O)(=O)NC(=O)Nc1nc(OC)n(C)n1

110 to 112 °C
148 to 151 °C
134 to 135 °C
108 °C
177 to 180 °C

Provenance of the data: a melting point compilation (Tetko et al.; mined from patent text by program, amines drawn as free bases though some values may be those of a salt)
